Test system: Candida albicans
cond: 20 µM
Description: Antifungal activity against Candida albicans ATCC 90028 (CO-ADD:FG_001); MIC in YNB media using NBS plates, by OD630
Measured potencies and affinities stand elsewhere.
property_name: Inhibition (%)

[[record]]
compound = "Cl.NCC(O)c1ccc(O)c(O)c1 (stereo not drawn)"
measurement_units = "%"
observed_result = 4.08

[[record]]
compound = "COC(=O)C[C@](O)(CCCC(C)(C)O)C(=O)O[C@@H]1C(OC)=C[C@]23CCCN2CCc2cc4c(cc2[C@H]13)OCO4 [OMACETAXINE MEPESUCCINATE]"
measurement_units = "%"
observed_result = 3.16

[[record]]
compound = "CC(=O)CC(c1ccccc1)c1c([O-])c2ccccc2oc1=O.[Na+] (stereo not drawn) [WARFARIN SODIUM]"
measurement_units = "%"
observed_result = 3.09

[[record]]
compound = "CNC(=O)Oc1ccc2c(c1)[C@]1(C)CCN(C)C1N2C.CNC(=O)Oc1ccc2c(c1)[C@]1(C)CCN(C)C1N2C.O=S(=O)(O)O (stereo partly drawn)"
measurement_units = "%"
observed_result = 2.24

[[record]]
compound = "Cl.O.Oc1ccc2c3c1O[C@H]1c4[nH]c5ccccc5c4C[C@@]4(O)C(C2)N(CC2CC2)CC[C@]314"
measurement_units = "%"
observed_result = 6.31

[[record]]
compound = "c1ccc(Cn2ccnc2)cc1"
measurement_units = "%"
observed_result = 2.99

[[record]]
compound = "Cl.O=C1c2cccc3c2[C@H](CCC3)CN1[C@@H]1CN2CCC1CC2 [PALONOSETRON HYDROCHLORIDE]"
measurement_units = "%"
observed_result = 2.55

[[record]]
compound = "Nc1nc(F)nc2c1ncn2[C@@H]1O[C@H](CO)[C@@H](O)[C@@H]1O [FLUDARABINE]"
measurement_units = "%"
observed_result = 0.49

